test system: MDA-MB-231 breast; experiment: NCI-60 one-dose screen, 48 h (100 = growth as untreated, 0 = no growth, -100 = all killed); settings: 10 µM unless noted
This is part of a sample that, as a whole, favours compounds with a hit. Of some 83,000 tested, about 20% had one in any assay. Calls of active or inactive are those of the source. Rule for the calls: active = growth percent below 10; inactive = the rest.
quantity: growth

Here's what some known entries look like.
Write down growth measured for item c1ccc2nc(N3CCOCC3)c(N3CCCCC3)nc2c1
97% (inactive)

Write down growth measured for item CCN(CC)CC#CCOC(=O)[C@]1(C)CCC[C@]2(C)[C@H]3C[C@H]4C(C(C)C)=C[C@]3(CC[C@H]21)[C@@H]1C(=O)CCC(=O)[C@@H]14
69% (inactive)

Write down growth measured for item Cc1nnc(/N=C2\NC(=O)/C(=C/c3ccc(N(C)C)cc3)S2)s1
103% (inactive)

Write down growth measured for item OCCNc1nc(NCCO)nc(Nc2ccc(C3=NN(c4cc(Cl)cc(Cl)c4)C(c4ccc(Cl)cc4)C3)cc2)n1 (centres undefined)
7.31% (active)

Write down growth measured for item Cc1cc(O)cc(O)c1N=NC1=NCCS1
97.1% (inactive)

More entries:
Write down growth measured for item O=C(C[n+]1cccc2cc(Cl)ccc21)c1ccc2c(c1)CCCC2
5.63% (active)

Write down growth measured for item COc1ccc(Nc2nc(SCC(C)C)nc(-c3ccc(F)cc3)c2C#N)cc1
89.3% (inactive)

Write down growth measured for item O=C(/C(=C/c1ccc([N+](=O)[O-])cc1)SCc1ccc(F)cc1)c1ccc(Cl)cc1
58.7% (inactive)

Write down growth measured for item CC(=O)c1ccc(NC(=O)CSc2nnc(-c3cc(-c4ccc(Cl)cc4)nc4ccccc34)o2)cc1
53.7% (inactive)
